Every entry's value here was drawn from ChEMBL document CHEMBL3286257.

# test: Metabolic stability of the compound in mouse liver microsomes assessed as compound remaining at 10 uM after 30 mins
# Type: ADME
# test.context: read-out: Stability
result.type: remaining at 0.5 h, 10 µM (%)

Solved cases below.
CCN(CC)c1ccc(C(=O)NCCn2c(C)cc3ccccc32)cc1 | 9
CCN(CC)c1ccc(C(=O)NCCc2c(C)[nH]c3ccccc23)cc1 | 19

a. Cc1cc2ccccc2n1CCNC(=O)c1ccc(N2CCCCC2)cc1
b. Cc1cc2ccccc2n1CCNC(=O)c1ccc(-n2cnnn2)cc1
Dear colleague, could you let me know whether a or b has the lower recorded remaining at 0.5 h, 10 µM? Thanks. Which one? Tell me its label.
a
(a: 18%, b: 26%)

A. CCCN(CCC)c1ccc(C(=O)NCCn2c(C)cc3ccccc32)cc1
B. Cc1cc2ccccc2n1CCNC(=O)c1ccc(N2CCC(O)CC2)cc1
Dear colleague, could you let me know whether A or B has the lower recorded remaining at 0.5 h, 10 µM? Thanks. Which one? Tell me its label.
B
(B: 12%, A: 26%)

###

# target.or.system: Prostaglandin E2 receptor EP2 subtype (Homo sapiens)
# test: Competitive antagonist activity at human EP2 receptor assessed as inhibition of PGE2-induced response
result.type: Kb (nM)

Solved cases below.
Cc1cc2ccccc2n1CCNC(=O)c1ccc(-c2nnn[nH]2)cc1 | 16.4
CCN(CC)c1ccc(C(=O)NCCc2c(C)[nH]c3ccccc23)cc1 | 16.3
CCN(CC)c1ccc(C(=O)NCCn2c(C)cc3ccccc32)cc1 | 17.5

1. Cc1cc2ccccc2n1CCNC(=O)c1ccc(N2CCC(C(=O)O)CC2)cc1
2. Cc1cc2ccccc2n1CCNC(=O)c1ccc(N2CCOCC2)cc1
Dear colleague, could you let me know whether 1 or 2 has the lower recorded Kb? Thanks. Which one? Tell me its label.
2

###

# target.or.system: UniProt P35408
# Sequence (P35408 whole entry): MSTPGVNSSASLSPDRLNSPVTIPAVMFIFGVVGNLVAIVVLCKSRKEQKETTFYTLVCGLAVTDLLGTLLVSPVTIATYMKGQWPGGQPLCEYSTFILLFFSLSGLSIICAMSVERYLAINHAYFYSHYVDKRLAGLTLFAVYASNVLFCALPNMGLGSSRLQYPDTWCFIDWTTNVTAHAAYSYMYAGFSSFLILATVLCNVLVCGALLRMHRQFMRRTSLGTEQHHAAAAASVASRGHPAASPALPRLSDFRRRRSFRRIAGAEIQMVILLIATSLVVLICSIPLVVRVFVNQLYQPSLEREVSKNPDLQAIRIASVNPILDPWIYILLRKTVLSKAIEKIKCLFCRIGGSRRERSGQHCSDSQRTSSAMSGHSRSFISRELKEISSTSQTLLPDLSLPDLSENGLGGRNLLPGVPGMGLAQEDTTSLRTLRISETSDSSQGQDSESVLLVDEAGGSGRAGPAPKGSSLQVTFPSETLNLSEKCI
# test: Antagonist activity at EP4 receptor (unknown origin) expressed in rat C6 cells assessed as inhibition of PGE2-induced response
# Assay type: cell-based
result.type: Kb (µM)

Solved cases below.
Cc1cc2ccccc2n1CCNC(=O)c1ccc(N2CCC(O)CC2)cc1 | 70.3
Cc1cc2ccccc2n1CCNC(=O)c1ccc(N2CCCC2)cc1 | 28.7
CCCN(CCC)c1ccc(C(=O)NCCn2c(C)cc3ccccc32)cc1 | 15.5

P. Cc1cc2ccccc2n1CCNC(=O)c1ccc(N2CCOCC2)c(F)c1
Q. Cc1cc2ccccc2n1CCNC(=O)c1ccc(N2CCCCCC2)cc1
Dear colleague, could you let me know whether P or Q has the lower recorded Kb? Thanks. Which one? Tell me its label.
P

###

# target.or.system: Prostaglandin E2 receptor EP4 subtype (Homo sapiens)
# test: Antagonist activity at EP4 receptor (unknown origin) expressed in rat C6 cells assessed as inhibition of PGE2-induced response
# Type: cell-based
result.type: Kb (µM)

Cc1cc2ccccc2n1CCNC(=O)c1ccc(N2CCCCC2)cc1 | 30.2

P. Cc1cc2ccccc2n1CCNC(=O)c1ccc(N2CCN(C)CC2)c(F)c1
Q. Cc1cc2ccccc2n1CCNC(=O)c1ccc2c(c1)n(C)c(=O)n2C
Select the item with the higher value of Kb from the options P and Q listed. Which one? Tell me its label.
Q

###

# test: Metabolic stability of the compound in human liver microsomes assessed as compound remaining at 10 uM after 30 mins
# Assay type: ADME
# test.context: read-out: Stability
result.type: remaining at 0.5 h, 10 µM (%)

Solved cases below.
CCN(CC)c1ccc(C(=O)NCCn2c(C)cc3ccccc32)cc1 | 9
CCCN(CCC)c1ccc(C(=O)NCCn2c(C)cc3ccccc32)cc1 | 20
Cc1cc2ccccc2n1CCNC(=O)c1cnc(Nc2ccccc2)nc1 | 67
Cc1[nH]c2ccccc2c1CCNC(=O)c1ccc(N2CCOCC2)cc1 | 58
Cc1[nH]c2ccccc2c1CCNC(=O)c1ccc(N(C)C)cc1 | 17

P. Cc1cc2ccccc2n1CCNC(=O)c1ccc(N2CCOCC2)cc1
Q. Cc1cc2ccccc2n1CCNC(=O)c1ccc(N(C)C)cc1
R. Cc1cc2ccccc2n1CCNC(=O)c1ccc(N2CCC(C(=O)O)CC2)cc1
S. CCN(CC)c1ccc(C(=O)NCCc2c(C)[nH]c3ccccc23)cc1
T. Cc1cc2ccccc2n1CCNC(=O)c1ccc(N2CCCCCC2)cc1
Order the records, beginning with the lowest remaining at 0.5 h, 10 µM and ending with the highest. To answer, arrange all of the labels according to the requested order.
Q, S, P, T, R

A. Cc1cc2ccccc2n1CCNC(=O)c1ccc(N2CCC(O)CC2)cc1
B. Cc1cc2ccccc2n1CCNC(=O)c1ccc(-c2nnn[nH]2)cc1
C. Cc1cc2ccccc2n1CCNC(=O)c1ccc(N2CCCC2)cc1
Order the records, beginning with the lowest remaining at 0.5 h, 10 µM and ending with the highest. To answer, arrange all of the labels according to the requested order.
C, A, B
(C: 12%, A: 49%, B: 87%)

###

solubility kinetic: recorded values
# test: Aqueous solubility of the compound by nephelometry method
# Type: physicochemical
# test.context: buffer

Cc1cc2ccccc2n1CCNC(=O)c1ccc(-n2cnnn2)cc1 | < 25 µM
Cc1cc2ccccc2n1CCNC(=O)c1ccc(N2CCC(C(=O)O)CC2)cc1 | > 750 µM
Cc1cc2ccccc2n1CCNC(=O)c1ccc(N2CCCCCC2)cc1 | < 25 µM

Specify solubility kinetic for CCN(CC)c1ccc(C(=O)NCCc2c(C)[nH]c3ccccc23)cc1 and stop.
< 25 µM

###

# target.or.system: Prostacyclin receptor (Homo sapiens) (UniProt P43119)
# Sequence (P43119 whole entry): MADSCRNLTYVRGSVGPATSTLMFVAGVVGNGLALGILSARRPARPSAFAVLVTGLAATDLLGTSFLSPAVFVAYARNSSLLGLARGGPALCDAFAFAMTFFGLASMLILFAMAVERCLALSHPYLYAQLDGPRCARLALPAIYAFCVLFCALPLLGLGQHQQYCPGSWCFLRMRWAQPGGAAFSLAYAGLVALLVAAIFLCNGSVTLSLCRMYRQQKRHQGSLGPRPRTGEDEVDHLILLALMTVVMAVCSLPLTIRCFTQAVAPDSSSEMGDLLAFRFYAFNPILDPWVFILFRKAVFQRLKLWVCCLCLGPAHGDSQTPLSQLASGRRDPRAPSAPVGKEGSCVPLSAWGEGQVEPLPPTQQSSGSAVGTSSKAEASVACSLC
# test: Antagonist activity at IP receptor (unknown origin) expressed in rat C6 cells by TR-FRET assay
# Type: cell-based
result.type: Kb (µM)

Solved cases below.
CCN(CC)c1ccc(C(=O)NCCn2c(C)cc3ccccc32)cc1 | 8
Cc1cc2ccccc2n1CCNC(=O)c1ccc(N2CCN(C)CC2)c(F)c1 | 64
Cc1cc2ccccc2n1CCNC(=O)c1ccc(N(C)C)cc1 | 4.7
Cc1[nH]c2ccccc2c1CCNC(=O)c1ccc(N2CCOCC2)cc1 | 85
Cc1cc2ccccc2n1CCNC(=O)c1ccc(N2CCCC2)cc1 | 14.2

a. Cc1cc2ccccc2n1CCNC(=O)c1ccc(N2CCC(O)CC2)cc1
b. Cc1[nH]c2ccccc2c1CCNC(=O)c1ccc(N(C)C)cc1
Dear colleague, could you let me know whether a or b has the lower recorded Kb? Thanks. Which one? Tell me its label.
a
(a: 18.1 µM, b: 63.1 µM)

a. Cc1cc2ccccc2n1CCNC(=O)c1ccc(N2CCCCC2)cc1
b. Cc1cc2ccccc2n1CCNC(=O)c1ccc(N2CCOCC2)c(F)c1
Dear colleague, could you let me know whether a or b has the lower recorded Kb? Thanks. Which one? Tell me its label.
a
(a: 3.4 µM, b: 5.6 µM)

P. Cc1cc2ccccc2n1CCNC(=O)c1ccc2c(c1)n(C)c(=O)n2C
Q. Cc1cc2ccccc2n1CCNC(=O)c1ccc(N2CCOCC2)cc1
Dear colleague, could you let me know whether P or Q has the lower recorded Kb? Thanks. Which one? Tell me its label.
Q

a. Cc1cc2ccccc2n1CCNC(=O)c1ccc(N2CCCCCC2)cc1
b. CCCN(CCC)c1ccc(C(=O)NCCn2c(C)cc3ccccc32)cc1
Dear colleague, could you let me know whether a or b has the lower recorded Kb? Thanks. Which one? Tell me its label.
b

###

# test: Metabolic stability of the compound in mouse liver microsomes assessed as compound remaining at 10 uM after 15 mins
# Format: ADME
# test.context: read-out: Stability
result.type: remaining at […], 10 µM (%)

1. Cc1cc2ccccc2n1CCNC(=O)c1ccc(N2CCCCC2)cc1
2. Cc1cc2ccccc2n1CCNC(=O)c1ccc(N2CCC(O)CC2)cc1
3. Cc1cc2ccccc2n1CCNC(=O)c1ccc(-c2nnn[nH]2)cc1
4. Cc1cc2ccccc2n1CCNC(=O)c1ccc(N2CCCC2)cc1
Put these in order: smallest remaining at […], 10 µM first, largest last. To answer, arrange all of the labels according to the requested order.
1, 2, 4, 3
(1: 24%, 2: 35%, 4: 52%, 3: 85%)

a. CCN(CC)c1ccc(C(=O)NCCc2c(C)[nH]c3ccccc23)cc1
b. Cc1cc2ccccc2n1CCNC(=O)c1ccc(N2CCCCCC2)cc1
c. Cc1cc2ccccc2n1CCNC(=O)c1ccc(N2CCOCC2)cc1
d. Cc1cc2ccccc2n1CCNC(=O)c1ccc(N2CCC(C(=O)O)CC2)cc1
Order the records by remaining at […], 10 µM, with each subsequent value no larger than the one before. To answer, arrange all of the labels according to the requested order.
d, b, a, c

###

# test: Metabolic stability of the compound in mouse liver microsomes assessed as compound remaining at 10 uM after 60 mins
# Format: ADME
# test.context: read-out: Stability
result.type: remaining at 1 h, 10 µM (%)

Cc1cc2ccccc2n1CCNC(=O)c1ccc(-n2cnnn2)cc1 | 7.5

A. Cc1cc2ccccc2n1CCNC(=O)c1ccc(N2CCOCC2)cc1
B. Cc1cc2ccccc2n1CCNC(=O)c1ccc(-c2nnn[nH]2)cc1
C. Cc1cc2ccccc2n1CCNC(=O)c1ccc(N2CCCCC2)cc1
D. Cc1cc2ccccc2n1CCNC(=O)c1cnc(Nc2ccccc2)nc1
Order the records, beginning with the lowest remaining at 1 h, 10 µM and ending with the highest. To answer, arrange all of the labels according to the requested order.
A, C, D, B
(A: 0%, C: 7%, D: 35%, B: 57%)
